Give GI50 for every item shown.
- System: XF498
- PROTOCOL SUMMARY: NCI tumour cell line growth inhibition, 48 h
The source made the active and inactive calls. Rule as the data show it: active = GI50 up to about 1.1 µM and inactive = higher.

MOLECULE | TARGET UNDER TEST | MEASURE NAME | MEASUREMENT
O=[N+]([O-])c1ccc(Nc2cccc3c4cc[nH]c(-c5ccccc5)c-4nc23)c([N+](=O)[O-])c1 | XF498 | GI50 | > 100 µM (inactive)
COc1nc(N)c(NC(C)=O)c(=O)n1C | XF498 | GI50 | > 100 µM (inactive)

From here, focus on the item given below.
What does the record list as GI50 for CN1C(=O)CCC2[C@@H]3CC=C4C[C@@H](O)CC[C@]4(C)C3CC[C@@]21C (stereo partly drawn) ?
45.7 µM (inactive)

The reported numbers originate from ChEMBL document CHEMBL1201862.
